- test.summary: Metabolic stability in mouse liver microsomes assessed as compound remaining measured after 30 mins
- Assay type: ADME, Microsome
- recorded.conditions: read-out: Stability
readout.type: remaining at 0.5 h (%)

CCCC[C@H](NC(=O)c1[nH]c2c(c1C)C(=O)CC(C)(C)C2)C(=O)Nc1ccc(OC2CCN(C)CC2)nc1 : 72
CCCC[C@H](NC(=O)c1[nH]c2c(c1C)C(=O)CC(C)(C)C2)C(=O)NCc1ccc(CN(C)C)cc1 : 78

(A) CCCC[C@H](NC(=O)c1[nH]c2c(c1C)C(=O)CC(C)(C)C2)C(=O)Nc1ccc(OC2CCN(C)CC2)cc1
(B) CCCC[C@H](NC(=O)c1[nH]c2c(c1C)C(=O)CC(C)(C)C2)C(=O)Nc1ccccc1
Task: Compare remaining at 0.5 h: is it lower for A or for B ? Answer = label.
Output: B
(B: 11%, A: 72%)

* * *

- study.target: Histone-lysine N-methyltransferase EHMT2 (Homo sapiens, UniProt Q96KQ7)
- Sequence (Q96KQ7 whole entry): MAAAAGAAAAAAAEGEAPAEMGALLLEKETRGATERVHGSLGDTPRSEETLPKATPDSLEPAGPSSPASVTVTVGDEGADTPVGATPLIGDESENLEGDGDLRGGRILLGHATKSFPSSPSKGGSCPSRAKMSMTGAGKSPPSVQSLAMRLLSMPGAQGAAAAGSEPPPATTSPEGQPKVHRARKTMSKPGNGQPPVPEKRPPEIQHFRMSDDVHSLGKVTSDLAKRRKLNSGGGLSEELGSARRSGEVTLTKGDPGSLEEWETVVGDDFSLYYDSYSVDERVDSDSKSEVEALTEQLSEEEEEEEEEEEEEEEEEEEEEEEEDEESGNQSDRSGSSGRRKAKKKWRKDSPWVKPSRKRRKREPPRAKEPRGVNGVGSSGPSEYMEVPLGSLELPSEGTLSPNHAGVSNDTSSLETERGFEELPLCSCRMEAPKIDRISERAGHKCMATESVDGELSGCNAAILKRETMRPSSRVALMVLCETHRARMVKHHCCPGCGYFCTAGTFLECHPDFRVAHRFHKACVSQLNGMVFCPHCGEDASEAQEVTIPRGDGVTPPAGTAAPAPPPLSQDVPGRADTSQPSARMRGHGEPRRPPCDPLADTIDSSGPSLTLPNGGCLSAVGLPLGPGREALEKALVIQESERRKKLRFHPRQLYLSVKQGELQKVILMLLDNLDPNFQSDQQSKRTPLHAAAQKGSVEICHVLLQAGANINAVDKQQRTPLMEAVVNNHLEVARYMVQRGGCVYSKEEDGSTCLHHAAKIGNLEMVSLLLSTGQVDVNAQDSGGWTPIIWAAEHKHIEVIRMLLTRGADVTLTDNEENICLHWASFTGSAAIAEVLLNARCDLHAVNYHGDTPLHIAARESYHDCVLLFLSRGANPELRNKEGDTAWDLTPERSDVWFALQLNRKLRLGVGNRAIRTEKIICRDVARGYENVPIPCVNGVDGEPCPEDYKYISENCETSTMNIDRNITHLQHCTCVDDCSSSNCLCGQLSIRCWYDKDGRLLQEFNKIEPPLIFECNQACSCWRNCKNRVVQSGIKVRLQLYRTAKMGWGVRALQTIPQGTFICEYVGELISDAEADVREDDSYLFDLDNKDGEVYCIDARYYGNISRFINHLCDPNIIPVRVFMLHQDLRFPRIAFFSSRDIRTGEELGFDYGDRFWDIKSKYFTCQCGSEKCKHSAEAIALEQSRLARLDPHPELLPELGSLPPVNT
pIC50: −log10 of the molar value.
readout.type: pIC50

(a) CCCCC(NC(=O)c1[nH]c2c(c1C)C(=O)CC(C)(C)C2)C(=O)Nc1ccc(CN2CCC(F)(F)CC2)cc1 (racemic)
(b) CCCCC(NC(=O)c1[nH]c2c(c1C)C(=O)CC(C)(C)C2)C(=O)Nc1ccc(CCN2CCCCC2)cc1 (racemic)
(c) CCCCC(NC(=O)c1[nH]c2c(c1C)C(=O)CC(C)(C)C2)C(=O)Nc1ccc(OC2CCN(C)CC2)cc1 (racemic)
Task: Order the 3 listed items from lowest to highest according to pIC50. Reply with the item labels sorted in the order that was asked for.
Output: a, b, c

(I) CCCCC(NC(=O)c1[nH]c2c(c1C)C(=O)CC(C)(C)C2)C(=O)Nc1ccc(OCCNC)nc1 (racemic)
(II) CCCCC(NC(=O)c1[nH]c2c(c1C)C(=O)CC(C)(C)C2)C(=O)Nc1ccc(OCCN(C)C)nc1 (racemic)
Task: Compare pIC50: is it lower for I or for II ? Answer = label.
Output: II

(I) CCCCC(NC(=O)c1[nH]c2c(c1C)C(=O)CC(C)(C)C2)C(=O)Nc1ccc(CN(C)C)cc1 (racemic)
(II) CCCCC(NC(=O)c1[nH]c2c(c1C)C(=O)CC(C)(C)C2)C(=O)NCc1ccc(CN(C)C)cc1 (racemic)
(III) CCCCC(NC(=O)c1[nH]c2c(c1C)C(=O)CC(C)(C)C2)C(=O)Nc1ccc(CCN2CCS(=O)(=O)CC2)cc1 (racemic)
(IV) CCCCC(NC(=O)c1[nH]c2c(c1C)C(=O)CC(C)(C)C2)C(=O)Nc1ccccc1 (racemic)
Task: Task for the reader: rank each entry by its pIC50, from the minimum upward. Reply with the item labels sorted in the order that was asked for.
Output: III, IV, I, II
(III: 5.55, IV: 5.89, I: 7.38, II: 7.92)

* * *

Form field: solubility (one value per entry).
- test.summary: Aqueous solubility of compound at pH 7.4
- Type: physicochemical

Here is how some compounds turned out for solubility.
CCCCC(NC(=O)c1[nH]c2c(c1C)C(=O)CC(C)(C)C2)C(=O)NCc1ccc(CN(C)C)cc1 (racemic) : > 200 µM
CCCCC(NC(=O)c1[nH]c2c(c1C)C(=O)CC(C)(C)C2)C(=O)Nc1cccnc1 (racemic) : > 200 µM
CCCCC(NC(=O)c1[nH]c2c(c1C)C(=O)CC(C)(C)C2)C(=O)Nc1ccc(CN2CCCC2)cc1 (racemic) : 189 µM

Task: Request the reported solubility associated with CCCCC(NC(=O)c1[nH]c2c(c1C)C(=O)CC(C)(C)C2)C(=O)Nc1ccc(OC2CCN(C)CC2)nc1 (racemic)
Output: > 200 µM

Task: Same thing, different compound: CCCCC(NC(=O)c1[nH]c2c(c1C)C(=O)CC(C)(C)C2)C(=O)Nc1ccc(OC2CCN(C)CC2)cc1 (racemic)
Output: 192 µM

* * *

// each record: one item and its pIC50 for Histone-lysine N-methyltransferase EHMT2 (Homo sapiens, UniProt Q96KQ7)
pIC50: −log10 of the molar value.
readout.type: pIC50

Here is how some compounds turned out for pIC50.
CCCC[C@H](NC(=O)c1[nH]c2c(c1C)C(=O)CC(C)(C)C2)C(=O)Nc1ccc(OC2CCN(C)CC2)cc1 : 7.62
CCCCC(NC(=O)c1[nH]c2c(c1C)C(=O)CC(C)(C)C2)C(=O)Nc1ccc(CN2CCCC2)cc1 (racemic) : 7.36

(I) CCCC[C@H](NC(=O)c1[nH]c2c(c1C)C(=O)CC(C)(C)C2)C(=O)Nc1ccc(OC2CCN(C)CC2)nc1
(II) CCCCC(NC(=O)c1[nH]c2c(c1C)C(=O)CC(C)(C)C2)C(=O)Nc1ccc(CCN2CCC(F)(F)CC2)cc1 (racemic)
Task: Pick one: I or II . Which has the bigger pIC50 number? Answer = label.
Output: I

* * *

- test.summary: Aqueous solubility of compound at pH 7.4
- Format: physicochemical
readout.type: solubility

Task: Request the reported solubility associated with CCCCC(NC(=O)c1[nH]c2c(c1C)C(=O)CC(C)(C)C2)C(=O)Nc1ccc(OCCN(C)C)nc1 (racemic)
Output: > 200 µM

Task: Same thing, different compound: CCCCC(NC(=O)c1[nH]c2c(c1C)C(=O)CC(C)(C)C2)C(=O)Nc1ccc(OCCN)nc1 (racemic)
Output: > 200 µM

Task: Same thing, different compound: CCCCC(NC(=O)c1[nH]c2c(c1C)C(=O)CC(C)(C)C2)C(=O)Nc1ccc(OCCNC)nc1 (racemic)
Output: > 200 µM
